run_description: yeast display, Sf9 membrane polyspecificity reagent, FACS + sequencing; frameworks hold sequencing errors
reported_endpoint: polyreactivity (PSR sort gate)

[[record]]
input_sequence = "QVQLVESGGGLVQAGGSLRLSCAASGITFTQYAMGWYRQAPGKERELVASITSSGDNTYYADSVKGRFTISRDNAKNTVYLQMNSLKPEDTAVYYCNARYKWSRRKPWGYWGQGTQVTVSS"
result = "high polyreactivity"

[[record]]
input_sequence = "QVQLVESGGGLVQAGGSLRLSCAASGRTFLWYAMGWYRQAPGKERELVAAITTAGSTYYADSVKGLFTISRDNAKNTVYLLMNSLKPEDTAVYYCNRLTYAYPPPVLGVGHDSWGQGTQVTVSS"
result = "low polyreactivity"

[[record]]
input_sequence = "QVQLVESGGGLVQAGGSLRLSCAASGRTFSAYARGWYRQAPGKERELVAAISRRGGSTYYADSVKGRFTISRDNAKNTVYLQMNSLKPEDTAVYYCAADVYKQYGYYYWGQGTLVTVSS"
result = "high polyreactivity"

[[record]]
input_sequence = "QVQLVESGGGLVQAGGSLRISCAASGRIFNSYAMGWYRQAPGKERELVASISTSGGSTYYADSVKGRFTISRDNAKNTVYLQMNSLKPEDTAVYYCARRYYPKFWYTYDSWGQGTQVTVSS"
result = "low polyreactivity"

[[record]]
input_sequence = "QVQLVESGGGLVQAGGSLRLSCAASGSTFDTYAMGWSRPAPGKERELVAAITSGSSTNYADSVKGRFTISRDNAKNTVYLQMNSLKPEDTAVYYCAALGYNVSSRGYYYWGQGTQVTVSS"
result = "low polyreactivity"

[[record]]
input_sequence = "QVQLVESGGGLVQAGGSLRLSCAASGSILAYNAMGWYRQAPGKERELVAAISWTGRTYYADSVKGRFTISRDNAKNTVYLQMNSLKPEDTAVYYCNARGRQRSRGSQIYDYWGQGSQVTVSS"
result = "high polyreactivity"

[[record]]
input_sequence = "KVQLVESGGGLVQAGGSLRISCAASGITFNPYAMGWYRQAAGKERELVAAISRRGGSTNYADSVKGRFTISRDNAKNTVYLQMNSLKPEDTAVYDCNRDYPIGYRHDPVYYWGQGTQVTVSS"
result = "high polyreactivity"

[[record]]
input_sequence = "QVQLVESGGGLVQAGGSLRLSCAASGSIFWQNAMGWYRQAPGKERELVAAISRNGGSTNYADSVKGRFTISRDNAKNTVYLQMNSLKPEDTAVYYCAAVGTVSRTVGYNYWGQGTQVTVSS"
result = "high polyreactivity"

[[record]]
input_sequence = "QVQLVESGGGLVQAGGSLRLSCAASGSIFAYYAMGWYREAPGKERELVADITSSGGITYSADSVKGRFTISRDNAKNTVYLLMNSLKPEDTAGYYCNADSWAIGGGSYPYDYWGQGTKVTVSS"
result = "low polyreactivity"

[[record]]
input_sequence = "QVQLVESGGGLVQAGGSLRLSCAASGLTFLYYAMGWYRQAPGKERELVAAISRSGGSTYYADSVKGRFTISRDNAKNTVYLQMNSLKPEDTAVYYCAAGRRGGKQGGTRGGDYWGQGTQVTVSS"
result = "high polyreactivity"


All values here come from the nanobody polyreactivity screen of Harvey et al. (2022).
